- test name: In vivo PK in mice
- Parameters: species or system mouse
- measurement conditions: mouse plasma, single oral gavage dose 50 mg/kg
Give measured AUC(PO) for each item. Keep answers brief.
Answers are plain numbers, in µM·h.

Recorded AUC(PO), per entry:
- mol: "NCc1ccc(S(=O)(=O)c2ccc3ccccc3c2)s1"
  units of measure: "µM·h"
  AUC(PO): 4.2
- mol: "CC(=O)NCCS(=O)(=O)c1ccc(S(=O)(=O)c2ccc(CN)s2)cc1.Cl"
  units of measure: "µM·h"
  AUC(PO): 0.36

Provide AUC(PO) values for the following items, in order.
1. NCc1ccc(S(=O)(=O)c2cccc(S(=O)(=O)N3CCCC3)c2)s1
2. CS(=O)(=O)c1ccc(S(=O)(=O)c2ccc(CN)s2)cc1-c1ccccc1

A.
[0.22, 1.4]

Provide AUC(PO) values for the following items, in order.
1. CC(C)(C)Oc1cc(S(C)(=O)=O)cc(S(=O)(=O)c2ccc(CN)s2)c1
2. Cc1ccc(-c2cc(S(=O)(=O)c3ccc(CN)s3)ccc2S(C)(=O)=O)cc1.Cl
3. Cl.Cl.Cn1cc(-c2cc(S(=O)(=O)c3ccc(CN)s3)ccc2S(C)(=O)=O)cn1
4. CC(C)(C)c1cc(S(C)(=O)=O)cc(S(=O)(=O)c2ccc(CN)s2)c1
5. NCc1ccc(S(=O)(=O)c2cccc(S(=O)(=O)N3CCC[C@H]3CO)c2)s1

A.
1: 2.3; 2: 12; 3: 2.8; 4: 6.5; 5: 0.46

Data origin: paper PMC6937593
